B1: CD2-associated protein, residues 271 to 331; numbered along this chain, Q9Y5K6 (parent)
chain: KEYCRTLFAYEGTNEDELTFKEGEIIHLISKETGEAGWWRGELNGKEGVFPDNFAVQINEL

variants of: B1; assay: abundance fitness (aPCA) (normalised: wild type 0, dead -1); higher = more abundant; growth selection in yeast, the domain comes from the species named; settings: Homo sapiens
Measured parameter: abundance fitness

- KEYCRTLFAYEGTNEDELTFKEGEIIWLISKETGEAGWWRGELNGKEGVFPDNFAVQINEL [H27W]: -0.276
- KEYCRTLFAYEGTNEDELTFKEGEIIALISKETGEAGWWRGELNGKEGVFPDNFAVQINEL [H27A]: -0.005
- KEYCRTLFAYEGTNEDELTFKEGENIHLISKETGEAGWWRGELNGKEGVFPDNFAVQINEL [I25N]: -0.451
- KEYCRTLFAYEGTCEDELTFKEGEIIHLISKETGEAGWWRGELNGKEGVFPDNFAVQINEL [N14C]: 0.029
- KEYCRTLFAYEGTNEDELTFKEGEIIHLISKETGEAGWWRGELNGKEGVFMDNFAVQINEL [P51M]: 0.004
- KEYCRTLFAYEGTNEDELTFKEGEIIHLIVKETGEAGWWRGELNGKEGVFPDNFAVQINEL [S30V]: -0.709
- KEYCRTLFAYEGTDEDELTFKEGEIIHLISKETGEAGWWRGELNGKEGVFPDNFAVQINEL [N14D]: -0.107
- KEYCRTLFAYEGTNEDELTFYEGEIIHLISKETGEAGWWRGELNGKEGVFPDNFAVQINEL [K21Y]: -0.37
- KEYCRTLFAYEGTNEDELTFKEGEIIHLISKETGEAGWWRGELNGKEGVFPDNFAVQIPEL [N59P]: -0.032
- KEYCRTLFAYEGTNEDELTFKEGEITHLISKETGEAGWWRGELNGKEGVFPDNFAVQINEL [I26T]: -0.605
- KEYCRTLFAYEGTNEDEKTFKEGEIIHLISKETGEAGWWRGELNGKEGVFPDNFAVQINEL [L18K]: -0.744
- KEYCRTLFAYEGTNEDELTFKEGEIIHLISKETGEAGWWRGELNGKEGVFPDNFAVTINEL [Q57T]: -0.024
- KEYCRTLFAYEGTNEDELTFKEGEIIHLISKETGEAGWWRGELNGKEGVFPDNFAVQILEL [N59L]: -0.501
- KEYCRTLFAYEGTNEDHLTFKEGEIIHLISKETGEAGWWRGELNGKEGVFPDNFAVQINEL [E17H]: -0.107
- KEYCRTLFAYEGTNEDELTFKEGEIIHLISKETGEAGWWRGELNGKEGLFPDNFAVQINEL [V49L]: -0.01
- KEYCRTLFAYEGTNEDELTFKEGEIIHLISKETGEAGWWRGYLNGKEGVFPDNFAVQINEL [E42Y]: -0.567
- KEYCRTLFAYEGTNEDELTFKEGEIIHLISKETGEAGWWRGELNKKEGVFPDNFAVQINEL [G45K]: -0.438
- KEYCRTLFAYEGTNEDELTFKEGEIIHLISKEGGEAGWWRGELNGKEGVFPDNFAVQINEL [T33G]: -0.076
- KEYCRTLFAYEGTNEDEFTFKEGEIIHLISKETGEAGWWRGELNGKEGVFPDNFAVQINEL [L18F]: -0.685
- KEYWRTLFAYEGTNEDELTFKEGEIIHLISKETGEAGWWRGELNGKEGVFPDNFAVQINEL [C4W]: -0.301
- KEYCRTLFAYEGTNEDELTFKEGEIIHLISKETGEAGWWRGELNIKEGVFPDNFAVQINEL [G45I]: -0.453
- KEYCRTLFAYEGTNEDELTFKEGEIIHLISKETGEAGWWRGESNGKEGVFPDNFAVQINEL [L43S]: -0.411

Value source: the Human Domainome abundance scans (Beltran et al. 2025)
